biological target: T1, recombinant human CD3 epsilon/delta heterodimer (human, UniProt P07766 23-126; P04234 22-105); assay: Octet BLI, mAb on FAB2G sensor, hCD3 E/D 200-50 nM; R^2 0.97
T1 construct: Recombinant protein in solution (200-50 nM) in the Octet assay; also called hCD3 E/D; human CD3E/D
T1 sequence (P07766 23-126, stated change not applied, chain 1 of 2): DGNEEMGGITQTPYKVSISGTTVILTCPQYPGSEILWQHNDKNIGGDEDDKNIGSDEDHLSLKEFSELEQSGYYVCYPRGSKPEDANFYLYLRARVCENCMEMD
T1 sequence (P04234 22-105, stated change not applied, chain 2 of 2): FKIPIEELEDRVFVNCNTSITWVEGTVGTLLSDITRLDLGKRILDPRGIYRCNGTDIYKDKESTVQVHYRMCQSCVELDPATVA
MEASURED_PROPERTY: kon (M⁻¹ s⁻¹)
Give your result in M⁻¹ s⁻¹ as a bare value.

The cases that follow already have their kon on record.
BINDER	kon [M⁻¹ s⁻¹]
ABL-CD3-14 (antibody, V domains shown, Chimeric hybridoma mAb: human V, CH1, upper hinge; mouse middle hinge, CH2, CH3) VH: EVQLVESGGGLVKPGGSLRLSCAASGFTCSSYSMTWVRQAPGKGLEWVSSISRRSSYIYYADSVKGRFTISRDNAKNSLYLQLNSLRAEDTAVYYCARERWELLYFDYWGQGTLVTVSS VL: NFMLTQPHSVSESPGKTVTISCTRSSGSIASNYVQWYQQRPGSSPTTVIYEDNQRPSGVPDRFSGSIDSSSNSASLTISGLKTEDEADYYCQSYDSSNRVFGGGTKLTVL	119000
ABL-CD3-35 (antibody, V domains shown, Chimeric hybridoma mAb: human V, CH1, upper hinge; mouse middle hinge, CH2, CH3) VH: EVQLVESGGGLVKPGGSLRLSCAASGFTFSSYSMNWVRQAPGKGLEWVSSVNSRGSYIYYADSVKGRFTISRDNAKDSLYLQMNSLRADDTAVYYCARDRRELLLDYWGQGTLVTVSS VL: SYELTQPPSVSVSPGQTARITCSGDALPKKYAYWYQQKSGQAPVLVIYEDSKRPSGIPERFSGSSSGTMATLTISGAQVEDEADYYCYSTDSSGNHCWVFGGGTKLTVL	495000
ABL-CD3-17 (antibody, V domains shown, Chimeric hybridoma mAb: human V, CH1, upper hinge; mouse middle hinge, CH2, CH3) VH: EVQLVESGGGLVQPGGSLRLSCAASGFTFSRYSINWVRQAPGKGLEWVSYISSSSSTIYYADSVKGRFTISRDNAKNSLYLQMNSLRDEDTAVYYCARERWELLYFDYWGQGTLVTVSS VL: NFMLTQPHSVSESPGKTVTISCTRSSGSIASKYVQWYQQRPGSSPTTVIYEDNQRPSGVPDRFSGSIDSSSNSASLTISGLKTEDEADYYCQSYDSNNRVFGGGTKLTVL	309000

Now for the binder whose kon we want.
Just so you know, measured kon for ABL-CD3-38 (antibody, V domains shown, Chimeric hybridoma mAb: human V, CH1, upper hinge; mouse middle hinge, CH2, CH3) VH: QGQLQQWGAGLLKPSETLSLTCAVYGGSFSGYYWSWIRLPPGKGLEWIGEINHSGNTNYNPSLKSRVTISVDTSKNQFSLQLSSVTAADTAVYYCAKEVEIWGYFDYWGQGTLVTVSS VL: QSVLTQPPSVSGAPGQRVTISCTGSSSNIGAGYDVHWYQQLPGTAPKLLIYGNSNRPSGVPDRFSGSKSGTSASLAITGLQAEDETDYNCQSYDSSLSGYVFGTGTKVTVL came out at 248000
